# Test system: P. falciparum stage V gametocytes
# Parameters: BacTiter-Glo ATP luminescence viability of purified stage V gametocytes in 384-well plates, per cent inhibition versus DMSO
# condition.parameters: 48 h, 5 µM; inhibitor
The campaign covered roughly 13,000 compounds. About 3,200 (25%) showed an effect of 50% or more. The list shows a part of the results.
Consider the following compounds; for each one, report its % Inhibition.
Numeric only. Scale: %

Looking up CN(C)CCCN1C(=O)c2[nH]nc(-c3ccc(Cl)cc3O)c2C1c1ccc(Cl)cc1 (centres unmarked) , I found its % Inhibition recorded as -62.01

Looking up COc1cc(SC)ccc1C(=O)N1CC(C)CC(C)C1 (centres unmarked) , I found its % Inhibition recorded as 27.35

Looking up COc1cc2c(cc1OC)C(C(=O)Nc1cc(OC)c(OC)c(OC)c1)C(c1ccc(SC)cc1)N(C)C2=O (centres unmarked) , I found its % Inhibition recorded as 59.65

Looking up COC(=O)c1ccc(OCC(C)NCC(O)c2cccc(C(F)(F)F)c2)cc1 (centres unmarked) , I found its % Inhibition recorded as 25.27

Looking up "CCCc1cc(C(=O)N[C@@H](Cc2ccccc2)[C@H](O)CNC(C)C)c(F)c(N2CCCC2=O)c1" , I found its % Inhibition recorded as 10.92

Looking up COc1ccc(C2C(C(=O)Nc3ccc4c(c3)OCO4)c3cc(OC)c(OC)cc3C(=O)N2C)cc1 (centres unmarked) , I found its % Inhibition recorded as 37.81

Looking up "N=C(N)c1cc(Cl)cc(NC(=O)Nc2cc(Cl)cc(C(=N)N)c2)c1" , I found its % Inhibition recorded as -2.183

Looking up "FC(F)(F)c1ccc2[nH]c(-c3ccc(-c4ccc(CNCc5cnn(-c6ccccc6)n5)cc4)s3)nc2c1.O=C(O)C(F)(F)F" , I found its % Inhibition recorded as -22.66

----------
# Tested on: P. falciparum stage V gametocytes
# Set-up: BacTiter-Glo ATP luminescence viability of purified stage V gametocytes in 384-well plates, per cent inhibition versus DMSO
# condition.parameters: 48 h, 5 µM; inhibitor
About 3,200 (25%) of roughly 13,000 compounds showed an effect of 50% or more. Some of the results follow.
Cut-off 20% on % Inhibition, inclusive. At or above means met; below means not met.

Lookup: In plain terms: is recorded % Inhibition at least 20% for "Fc1ccc2nc(-c3ccc(-c4ccc(CNCc5ccccc5)cc4)cc3)[nH]c2c1" ?
Found: not met

Lookup: In plain terms: is recorded % Inhibition at least 20% for COc1cc2nc(N3CC(C)N(C(=O)Cc4ccc(-c5ccccc5)cc4)C(C)C3)nc(N)c2cc1OC (centres unmarked) ?
Found: met

Lookup: In plain terms: is recorded % Inhibition at least 20% for "COc1cc2nc(N3CCC(CNC(=O)c4ccc(-c5cccc(C#N)c5)cc4)CC3)nc(N)c2cc1OC" ?
Found: met

Lookup: In plain terms: is recorded % Inhibition at least 20% for Cc1ccc(C(=O)Nc2ccc(C)c(OC3CCN(CCC(C)C)C3)c2)cc1 (centres unmarked) ?
Found: not met

Lookup: In plain terms: is recorded % Inhibition at least 20% for "CN1CC[C@@H](Oc2cc(NC(=O)Nc3ccc(Cl)c(C(F)(F)F)c3)ccc2Cl)C1" ?
Found: met

Lookup: In plain terms: is recorded % Inhibition at least 20% for "CN1CC[C@@H](Oc2cc(NC(=O)Nc3ccccc3Br)ccc2Cl)C1" ?
Found: met

Lookup: In plain terms: is recorded % Inhibition at least 20% for "COc1cc2nc(N3CCC(CNC(=O)c4ccc(-c5ccc(C#N)cc5)cc4)CC3)nc(N)c2cc1OC" ?
Found: not met

Lookup: In plain terms: is recorded % Inhibition at least 20% for "COc1cc2nc(N3CCC(CNC(=O)/C=C/c4cccc(C)c4)CC3)nc(N)c2cc1OC" ?
Found: not met
